STUDY_SYSTEM: human cholecystokinin-1 receptor (CCK-1R) (Homo sapiens, UniProt P32238)
Construct: host or cells: 1321-N1 cells
Sequence (P32238 1-428): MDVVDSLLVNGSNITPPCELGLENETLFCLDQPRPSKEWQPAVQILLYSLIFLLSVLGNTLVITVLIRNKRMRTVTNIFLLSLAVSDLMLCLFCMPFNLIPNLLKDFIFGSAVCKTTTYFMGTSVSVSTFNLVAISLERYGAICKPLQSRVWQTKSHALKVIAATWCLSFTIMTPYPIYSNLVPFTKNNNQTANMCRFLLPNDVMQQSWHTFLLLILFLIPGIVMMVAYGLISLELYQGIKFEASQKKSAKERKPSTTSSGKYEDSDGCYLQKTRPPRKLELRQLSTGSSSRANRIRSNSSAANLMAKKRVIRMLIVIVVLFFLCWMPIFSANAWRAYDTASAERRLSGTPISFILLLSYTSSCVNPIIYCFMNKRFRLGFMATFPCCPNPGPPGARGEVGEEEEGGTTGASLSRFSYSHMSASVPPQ
TEST_NAME: In vitro receptor binding to CCK-1R, SPA displacement of [125I]-CCK-8s from plasma membranes
EXPERIMENTAL_PARAMETERS: ratio of binding IC50 values; >1 = preference for CCK-1R
Starred links: 1 amine or outer side, 2 acyl side, 3 side chain; linkers in the order of their positions; H or OH if unused. Non-standard residues stand in square brackets, D forms with d. Residues, ends and D or L forms follow the SMILES beside them. *: point of attachment. sY = N[C@@H](Cc1ccc(OS(=O)(=O)O)cc1)C(=O)O; C18 diacid = O=C(O)CCCCCCCCCCCCCCCCC(=O)*; γGlu = O=C(O)[C@H](CCC(=O)[*:2])N[*:1]; 1Nal = N[C@@H](Cc1cccc2ccccc12)C(=O)O; NMeF = CN[C@@H](Cc1ccccc1)C(=O)O; dNMeD = CN[C@H](CC(=O)O)C(=O)O; Nle = CCCC[C@H](N)C(=O)O; AEEA = NCCOCCOCC(=O)O
Provide the recorded CCK-1R binding selectivity (IC50 (CCK-2R)/IC50 (CCK-1R)) for the entries that follow.
Numbers only.

The examples below pair each entry with its known result.
CCCC[C@H](NC(=O)[C@H](Cc1c[nH]c2ccccc12)NC(=O)CNC(=O)[C@H](Cc1ccccc1)NC(=O)[C@H](Cc1ccc(OS(=O)(=O)O)cc1)NC(=O)[C@H](CC(=O)O)NC(=O)COCCOCCNC(=O)COCCOCCNC(=O)CC[C@H](NC(=O)CCCCCCCCCCCCCCCCC(=O)O)C(=O)O)C(=O)N(C)[C@H](CC(=O)O)C(=O)N(C)[C@@H](Cc1ccccc1)C(N)=O [Example 44] ({C18 diacid-γGlu-AEEA-AEEA}-D[sY]FGW[Nle][dNMeD][NMeF]-NH2)	87000
CCCC[C@H](NC(=O)[C@H](Cc1c[nH]c2ccccc12)NC(=O)CNC(=O)[C@H](Cc1ccccc1)NC(=O)[C@H](Cc1ccc(OS(=O)(=O)O)cc1)NC(=O)[C@@H](N)CC(=O)O)C(=O)N(C)[C@H](CC(=O)O)C(=O)N(C)[C@@H](Cc1ccccc1)C(N)=O [Example 78] (H-D[sY]FGW[Nle][dNMeD][NMeF]-NH2)	32000
CCCC[C@H](NC(=O)[C@H](Cc1c[nH]c2ccccc12)NC(=O)CNC(=O)[C@H](CC(C)C)NC(=O)[C@H](Cc1ccc(OS(=O)(=O)O)cc1)NC(=O)[C@H](CC(=O)O)NC(=O)[C@H](CO)NC(=O)[C@H](CO)NC(=O)CNC(=O)[C@H](CO)NC(=O)[C@H](CO)NC(=O)CNC(=O)CCCCCCCCCCCCCCCCC(=O)O)C(=O)N(C)[C@H](CC(=O)O)C(=O)N(C)[C@@H](Cc1ccccc1)C(N)=O [Example 29] ({C18 diacid}-GSSGSSD[sY]LGW[Nle][dNMeD][NMeF]-NH2)	5100
CCCC[C@H](NC(=O)[C@H](Cc1c[nH]c2ccccc12)NC(=O)CNC(=O)[C@H](C)NC(=O)[C@H](Cc1ccc(OS(=O)(=O)O)cc1)NC(=O)[C@H](CC(=O)O)NC(=O)COCCOCCNC(=O)COCCOCCNC(=O)CC[C@H](NC(=O)CCCCCCCCCCCCCCCCC(=O)O)C(=O)O)C(=O)N(C)[C@H](CC(=O)O)C(=O)N(C)[C@@H](Cc1ccccc1)C(N)=O [Example 46] ({C18 diacid-γGlu-AEEA-AEEA}-D[sY]AGW[Nle][dNMeD][NMeF]-NH2)	4100
CCCC[C@H](NC(=O)[C@H](Cc1ccc(OS(=O)(=O)O)cc1)NC(=O)[C@@H](N)CC(=O)O)C(=O)NCC(=O)N[C@@H](Cc1c[nH]c2ccccc12)C(=O)N[C@@H](CCCC)C(=O)N(C)[C@H](CC(=O)O)C(=O)N[C@@H](Cc1cccc2ccccc12)C(N)=O [Example 54] (H-D[sY][Nle]GW[Nle][dNMeD][1Nal]-NH2)	84000

Req: Which value of CCK-1R binding selectivity (IC50 (CCK-2R)/IC50 (CCK-1R)) has been reported for CC(C)C[C@H](NC(=O)[C@H](Cc1ccc(OS(=O)(=O)O)cc1)NC(=O)[C@H](CC(=O)O)NC(=O)COCCOCCNC(=O)COCCOCCNC(=O)CC[C@H](NC(=O)CCCCCCCCCCCCCCCCC(=O)O)C(=O)O)C(=O)NCC(=O)N[C@@H](Cc1c[nH]c2ccccc12)C(=O)N[C@H](C(=O)N(C)[C@H](CC(=O)O)C(=O)N(C)[C@@H](Cc1ccccc1)C(N)=O)C(C)C [Example 14] ({C18 diacid-γGlu-AEEA-AEEA}-D[sY]LGWV[dNMeD][NMeF]-NH2) in the records?
Resp: 21000
